Data provenance is paper PMC11147780.

Entries annotated with measured pKd
Molecular target: T1, 10E8-GT10.2 epitope scaffold (designed scaffold 10E8-GT10.2 with …, N-linked glycosylation sites added (positions not given))
T1 chain: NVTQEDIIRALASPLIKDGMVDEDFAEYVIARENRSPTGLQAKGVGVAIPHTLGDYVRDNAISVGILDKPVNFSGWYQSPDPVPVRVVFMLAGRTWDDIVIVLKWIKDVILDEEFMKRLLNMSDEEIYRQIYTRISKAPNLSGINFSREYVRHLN
Here pKd is given on a logarithmic scale as minus log10 of the concentration in mol/L.

Examples with their reported pKd follow.
>>> endpoint_result("NHP-10E8_MPER-GT10v55_W26-06 (antibody, V domains shown) VH: QVQLQESGPGLVKPSETLSLTCAVSGDSISSGYYYWSWIRQPPGKGLEWIGYITYSGSTSYNPSLKSQVTISRDTAKNQFSLKLSSVTAADTAVYYCARGGTYYNFWSDGSPQYNRFGFWGPGVPVTVSS VL: DIVMTQTPLSLPVTPGEPASISCRSSQSLLHSEDGNTYLDWYLQKPGQSPQLLIYEVSNRASGVPDRFSGSGSDTDFTLKISRVEAEDVGVYYCMQGLEFPLTFGGGTKVELK")
8.84
>>> endpoint_result("NHP-Comp_MPER-GT10v55_W21-02 (antibody, V domains shown) VH: QVQLQESGPAVVKPSETLSLTCAVSGGSISSNNWWSWIRQSPGKGLEWIGGLYGSGGNTEYYPSLKSRVTISVDTSKNQFSLKLSSVTAADTAVYYCASPAPYYGRGYSFDAFDFWGQGLRVTVSS VL: QSALTQPPSVSKSLGQSVTISCTGTSSDIGGYNGVSWYQQHSGTAPKLLIYDVNKRPSGVSDRFSGSKSGNTASLTISGLQAEDEADYYCCSYRGGSTYWVFGGGTRLTV")
5.17

Lab note: next binder to report on.
What the record says about NHP-10E8_MPER-GT10v55_W3-19 (antibody, V domains shown) VH: EVQLVESGGGLVQPGGSLRLSCAASGFTFSNYWMSWVRQAPGKGLEWVGFIKNKADGGTAAYAESVKGRFSISRDDSKNTLYLQMNSLKTEDTAVYYCTRDVGRYNFWSGYYSHNRIDVWGPGVLVTVSS VL: SYELTQPPSVSVSPGQMARITCGGDNLGSKYVHWFQQKPAQAPALVIYDDSDRPSGIPERFSGSKSGNTATLTISGVESGDEADYYCQVWDSGTDHPLFGGGTRLTV : pKd is 6.46
